test system: Escherichia coli; experiment: Antiadherent activity against P-fimbriated Escherichia coli in human erythrocyte assessed as suppression of agglutination using latex beads coated with P receptor analogue at 0.6 mg/ml; format: functional, organism-based
Active and inactive are the calls of the source. The calls are words filed in the database; no cut-off is given here.
// one of yes for active, no for inactive, no free text

Which result was noted for this compound in the test: `Oc1cc(O)c2c(c1)O[C@H](c1ccc(O)c(O)c1)[C@H](O)[C@H]2c1c(O)cc(O)c2c1O[C@H](c1ccc(O)c(O)c1)[C@H](O)C2` no

Which result was noted for this compound in the test: `Oc1cc(O)c2c(c1)O[C@H](c1ccc(O)c(O)c1)[C@H](O)[C@H]2c1c(O)cc(O)c2c1O[C@@]1(c3ccc(O)c(O)c3)Oc3cc(O)c4c(c3[C@@H]2[C@H]1O)O[C@H](c1ccc(O)c(O)c1)[C@H](O)C4` yes

Which result was noted for this compound in the test: `Oc1cc(O)c2c(c1)O[C@@]1(c3ccc(O)c(O)c3)Oc3cc(O)c4c(c3[C@@H]2[C@H]1O)O[C@H](c1ccc(O)c(O)c1)[C@H](O)C4` no

Which result was noted for this compound in the test: `Oc1cc(O)c2c(c1)O[C@@]1(c3ccc(O)c(O)c3)Oc3cc(O)c4c(c3[C@@H]2[C@H]1O)O[C@H](c1ccc(O)c(O)c1)[C@H](O)[C@H]4c1c(O)cc(O)c2c1O[C@H](c1ccc(O)c(O)c1)[C@H](O)C2` yes

Which result was noted for this compound in the test: `Oc1cc(O)c2c(c1)O[C@H](c1ccc(O)c(O)c1)[C@H](O)C2` no

Which result was noted for this compound in the test: `Oc1cc(O)c2c(c1)O[C@H](c1ccc(O)c(O)c1)[C@H](O)[C@H]2c1c(O)cc2c(c1O)[C@@H]1c3c(cc(O)c4c3O[C@H](c3ccc(O)c(O)c3)[C@H](O)C4)O[C@](c3ccc(O)c(O)c3)(O2)[C@@H]1O` yes
